Test system: PTP1B
MEASUREMENT DESCRIPTION: Phosphatase activity of PTP1B constructs against pNPP (enzyme assay)
Type: biochemical, human
PARTICULARS: pNPP substrate, pH 7.5, 0.015 μM PTP1B (FIG. 27, 32A, 32B)
Listing of recorded kcat by entry.
The reply should contain only the number, in s⁻¹.

Previously resolved entries follow.
PTP1BD298A: PTP1B1-301 mutant with point mutation in the α7 helix (protein, UniProt P18031 1-301, looked up, variant D298A) MEMEKEFEQIDKSGSWAAIYQDIRHEASDFPCRVAKLPKNKNRNRYRDVSPFDHSRIKLHQEDNDYINASLIKMEEAQRSYILTQGPLPNTCGHFWEMVWEQKSRGVVMLNRVMEKGSLKCAQYWPQKEEKEMIFEDTNLKLTLISEDIKSYYTVRQLELENLTTQETREILHFHYTTWPDFGVPESPASFLNFLFKVRESGSLSPEHGPVVVHCSAGIGRSGTFCLADTCLLLMDKRKDPSSVDIKKVLLEMRKFRMGLIQTADQLRFSYLAVIEGAKFIMGDSSVQDQWKELSHEALEP	6.3
PTP1BW291A: PTP1B1-301 mutant with point mutation in the α7 helix (protein, UniProt P18031 1-301, looked up, variant W291A) MEMEKEFEQIDKSGSWAAIYQDIRHEASDFPCRVAKLPKNKNRNRYRDVSPFDHSRIKLHQEDNDYINASLIKMEEAQRSYILTQGPLPNTCGHFWEMVWEQKSRGVVMLNRVMEKGSLKCAQYWPQKEEKEMIFEDTNLKLTLISEDIKSYYTVRQLELENLTTQETREILHFHYTTWPDFGVPESPASFLNFLFKVRESGSLSPEHGPVVVHCSAGIGRSGTFCLADTCLLLMDKRKDPSSVDIKKVLLEMRKFRMGLIQTADQLRFSYLAVIEGAKFIMGDSSVQDQAKELSHEDLEP	4.5

Prompt: For PTP1BS190A: PTP1B1-301 mutant with mutation in the α3 helix (protein, UniProt P18031 1-301, looked up, variant S190A) MEMEKEFEQIDKSGSWAAIYQDIRHEASDFPCRVAKLPKNKNRNRYRDVSPFDHSRIKLHQEDNDYINASLIKMEEAQRSYILTQGPLPNTCGHFWEMVWEQKSRGVVMLNRVMEKGSLKCAQYWPQKEEKEMIFEDTNLKLTLISEDIKSYYTVRQLELENLTTQETREILHFHYTTWPDFGVPESPAAFLNFLFKVRESGSLSPEHGPVVVHCSAGIGRSGTFCLADTCLLLMDKRKDPSSVDIKKVLLEMRKFRMGLIQTADQLRFSYLAVIEGAKFIMGDSSVQDQWKELSHEDLEP , what is its reported kcat?
Response: 6.1

Prompt: Please do the same for PTP1BY153F: PTP1B1-301 mutant with mutation in the L11 loop (protein, UniProt P18031 1-301, looked up, variant Y153F) MEMEKEFEQIDKSGSWAAIYQDIRHEASDFPCRVAKLPKNKNRNRYRDVSPFDHSRIKLHQEDNDYINASLIKMEEAQRSYILTQGPLPNTCGHFWEMVWEQKSRGVVMLNRVMEKGSLKCAQYWPQKEEKEMIFEDTNLKLTLISEDIKSYFTVRQLELENLTTQETREILHFHYTTWPDFGVPESPASFLNFLFKVRESGSLSPEHGPVVVHCSAGIGRSGTFCLADTCLLLMDKRKDPSSVDIKKVLLEMRKFRMGLIQTADQLRFSYLAVIEGAKFIMGDSSVQDQWKELSHEDLEP as well.
Response: 6.0
